experimental.readout: melting point

Sample records with melting point:
| compound | experimental.readout | readout.value |
| --- | --- | --- |
| O=C(c1ccc(-c2ccn(C(=O)c3ccc(Cl)cc3Cl)n2)cc1)N1Cc2cccn2Cc2ccccc21 [Example 38] | melting point | 180 to 182 °C |
| O=C(c1ccc(-c2nnn[nH]2)cc1Cl)N1Cc2cccn2Cc2ccccc21 [Example 86] | melting point | 218 to 220 °C |

INPUT: May I ask what melting point has been recorded for Cc1ccn(-c2ccc(C(=O)N3Cc4cccn4Cc4ccccc43)c(F)c2)n1 [Example 92] ?
OUTPUT: 192 to 193 °C

INPUT: Again, but for Cc1ncn(-c2ccc(C(=O)N3Cc4cccn4Cc4ccccc43)c(C(F)(F)F)c2)n1 [Example 103]
OUTPUT: 148 to 150 °C

INPUT: Again, but for Cc1ccn(-c2ccc(C(=O)O)c(Cl)c2)n1 [Example 97]
OUTPUT: 192 to 193 °C

###

experimental.target: Vasopressin V2 (Rattus norvegicus)
Sequence (Q00788 whole entry): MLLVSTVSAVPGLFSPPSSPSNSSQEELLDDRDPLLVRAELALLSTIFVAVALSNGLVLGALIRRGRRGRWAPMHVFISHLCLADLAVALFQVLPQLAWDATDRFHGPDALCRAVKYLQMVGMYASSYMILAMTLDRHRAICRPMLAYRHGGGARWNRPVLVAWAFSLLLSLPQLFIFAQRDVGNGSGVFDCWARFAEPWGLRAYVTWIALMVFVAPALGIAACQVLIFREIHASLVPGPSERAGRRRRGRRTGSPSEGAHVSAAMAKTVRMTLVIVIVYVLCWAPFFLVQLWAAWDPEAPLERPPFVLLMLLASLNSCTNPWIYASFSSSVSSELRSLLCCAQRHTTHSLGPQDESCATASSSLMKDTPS
assay.summary: Vasopressin V2 agonist effects in normal conscious water-loaded rats
Type: in vivo
Set-up: from tissue; host or cells: whole living Sprague-Dawley rat; the receptor is the animal's own (renal, by own knowledge)
cond: Sprague-Dawley (CD) rats, 10 mg/kg oral, change in osmolality as percent of control
Protocol: Vasopressin V2 Agonist Effects of Test Compounds in Normal Conscious Water-loaded Rats Male or female normotensive Sprague-Dawley rats (Charles River Laboratories, Inc., Kingston, N.Y.) of 350-500 g body weight were supplied with standard rodent diet (Purina Rodent Lab. Chow 5001) and water ad libitum. […] At the end of four hours, urine volume was measured. […]
experimental.readout: Osmolality (% Increase) (%)

Sample records with Osmolality (% Increase):
| molecule | experimental.target | readout.unit | Osmolality (% Increase) |
| --- | --- | --- | --- |
| Cn1cc(-c2ccc(C(=O)N3Cc4cccn4Cc4ccccc43)cc2)cn1 | Vasopressin V2 (Rattus norvegicus) | % | 164 |
| Cn1cc(-c2ccc(C(=O)N3Cc4cccn4Cc4ccccc43)cn2)cn1 | Vasopressin V2 (Rattus norvegicus) | % | 288 |
| Cc1ccn(-c2ccc(C(=O)N3Cc4cccn4Cc4ccccc43)c(O)c2)n1 | Vasopressin V2 (Rattus norvegicus) | % | 95 |
| COCn1ccc(-c2ccc(C(=O)N3Cc4cccn4Cc4ccccc43)cc2)n1 | Vasopressin V2 (Rattus norvegicus) | % | 305 |
| Cc1ccn(-c2ccc(C(=O)N3Cc4cccn4Cc4ccccc43)c(F)c2)n1 | Vasopressin V2 (Rattus norvegicus) | % | 454 |

a. O=C(c1ccc(-n2cccn2)cc1)N1Cc2cccn2Cc2ccccc21
b. COc1cc(-n2ccc(C)n2)ccc1C(=O)N1Cc2ccc(CN(C)C)n2Cc2ccccc21
INPUT: Which has the higher Osmolality (% Increase), a or b ? Please respond with the label that marks your chosen entry.
OUTPUT: a
(a: 324%, b: 145%)

P. N#Cc1ccc(C(=O)N2Cc3cccn3Cc3ccccc32)c(Cl)c1
Q. O=C(c1ccc(-c2ccn(C(=O)c3ccccc3-c3ccc(C(F)(F)F)cc3)n2)cc1)N1Cc2cccn2Cc2ccccc21
R. O=C(c1ccc(-n2cncn2)cc1Cl)N1Cc2cccn2Cc2ccccc21
INPUT: Arrange the 3 molecules by rising Osmolality (% Increase), starting with the smallest. Write the labels in rank order as requested.
OUTPUT: P, Q, R
(P: 90%, Q: 240%, R: 406%)

1. Cn1ccc(-c2ccc(C(=O)N3Cc4ccnn4Cc4ccccc43)cc2)n1 [Example 120A]
2. O=C(c1ccc(-n2cncn2)cc1C(F)(F)F)N1Cc2cccn2Cc2ccccc21
3. CCCCn1ccc(-c2ccc(C(=O)N3Cc4cccn4Cc4ccccc43)cc2)n1
4. O=C(c1ccc(F)cc1F)N1Cc2cccn2Cc2ccccc21
INPUT: Please list these molecules in decreasing order of Osmolality (% Increase). Write the labels in rank order as requested.
OUTPUT: 1, 2, 4, 3
(1: 269%, 2: 137%, 4: 69%, 3: 37%)

A. Cc1noc(-c2ccc(C(=O)N3Cc4cccn4Cc4ccccc43)cc2)n1
B. CC(=O)c1ccc(C(=O)N2Cc3cccn3Cc3ccccc32)c(Cl)c1
INPUT: Which has the higher Osmolality (% Increase), A or B ? Please respond with the label that marks your chosen entry.
OUTPUT: A
